- System: 945468-187-T-J2-PDC spheroids viability;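 further: spheroids exposed to compounds for seven days before reading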
- method: Anticancer human tumor 945468-187-T-J2-PDC patient-derived rectal carcinoma cell line growth inhibition [PI3K]
- condition.info: second compound 0.0316 µM; first compound 0.3 µM; active compounds read low; spheroids with HUVEC and MSC
// reported viability, T/C per item
Could you give me the number in %? Just the number is fine.

Completed entries (count: 3):
Cn1cnc2c(F)c(Nc3ccc(Br)cc3Cl)c(C(=O)NOCCO)cc21 + COc1c(OCCCN2CCOCC2)ccc2c3n(c(=NC(=O)c4cnc(N)nc4)nc12)CCN3 : 98.6
Cn1cnc2c(F)c(Nc3ccc(Br)cc3Cl)c(C(=O)NOCCO)cc21 + Cc1nc(NC(=O)N2CCCC2C(N)=O)sc1-c1ccnc(C(C)(C)C(F)(F)F)c1 : 71.8
Cn1cnc2c(F)c(Nc3ccc(Br)cc3Cl)c(C(=O)NOCCO)cc21 + CC(Nc1ccc2c(c1)OCCn1cc(N3C(=O)OCC3C(F)F)nc1-2)C(N)=O : 93.7

Below: the item to evaluate.
Query: Item under review: Cn1cnc2c(F)c(Nc3ccc(Br)cc3Cl)c(C(=O)NOCCO)cc21 + CC(Nc1ncnc2nc[nH]c12)c1cc2cccc(Cl)c2c(=O)n1-c1ccccc1 . Reported viability, T/C?
Response: 92.8
